Assay: Plasma elimination half life, rat, i.v.
Type: in vivo
Details: iv
Structures can show the parent of a compound that is named as a salt.
experimentalEndpoint: half-life (min)

[I] CC(C)c1cc(C(F)(F)F)cc(C(=O)N=C(N)N)c1Cl [Example 5, hydrochloride]
[II] COc1cc(Cl)c(C(=O)N=C(N)N)cc1C(F)(F)F [Example 1, hydrochloride]
Task for the reader: decide whether I or II has the larger half-life. Please reply using the label of the selected record.
I
